# credit: the Biogen ADME set (Fang et al. 2023)

reported_metric: intrinsic clearance, rat liver microsomes (mL/min/kg)
Answers are plain numbers, in mL/min/kg.

Cn1ncc2c(Oc3cccc(Oc4ccccn4)c3)ncnc21    369

Provide intrinsic clearance, rat liver microsomes for all items below, preserving their order.
1. Cc1cc(C(=O)N2CCC(C(=O)c3ccnn3C)CC2)sc1C
2. COc1cccc(OC)c1-c1ccc(OCCN2CCCC2)cc1

1: 957; 2: 2290

====

Quick rule: intrinsic clearance, rat liver microsomes of at least 400 mL/min/kg means T, below that means F.

N#Cc1c(Cl)nc(N)n1-c1ccccc1    F
C[n+]1cc2c3c(ccc2c2ccc4cc5c(cc4c21)OCO5)OCO3    F
COCCOc1ccc2c(c1)ncn2-c1ccc2cccc(N3CCC(N)CC3)c2n1    F

Given `CC(C)n1ccc(C(=O)N2CCS(=O)(=O)C(C)(C)C2)n1` , state whether its intrinsic clearance, rat liver microsomes is at least 400 mL/min/kg.
F

// inclusive: intrinsic clearance, rat liver microsomes at least 400 mL/min/kg? input: `O=C(Nc1nnc[nH]1)c1ccc(C2SCCCS2)cc1`
F

Test whether the molecule `C1CCC(OCc2noc(C3CC3)n2)CC1` records intrinsic clearance, rat liver microsomes of 400 mL/min/kg or higher.
F

Is intrinsic clearance, rat liver microsomes at least 400 mL/min/kg? Consider `COc1ccc(-c2ccc(Cn3nc(C)cc3C)cn2)cc1`
F

For this molecule, is measured intrinsic clearance, rat liver microsomes 400 mL/min/kg or higher? `O=C(CCCc1cc(Cl)sc1Cl)N1CC[C@H](O)C1`
T

Test whether the molecule CC(O)(C#Cc1ccc2c(c1)N(c1nc(N)ncc1Cl)CC2)c1nccs1 (stereo not drawn) records intrinsic clearance, rat liver microsomes of 400 mL/min/kg or higher.
F

Reported intrinsic clearance, rat liver microsomes reaches at least 400 mL/min/kg for `Cc1cccn(Cc2ccccc2F)c1=O` ?
F

Does the reported intrinsic clearance, rat liver microsomes for `Oc1cncc(/C=C/c2nc(-c3ccncc3)no2)c1` fall at or above the 400 mL/min/kg mark?
F

hey, is intrinsic clearance, rat liver microsomes for this one >= 400 mL/min/kg? `O=C1CCCN1c1ccc(CN2CCC(c3noc4cc(F)ccc34)CC2)cc1`
F
